Origin of values: patent US5719291A

System: Aspergillus fumigatus
Assay: In vitro antifungal activity, MIC (Method A)
Assay type: cell-based
Settings: Aspergillus fumigatus, 72 h, pH 7, Aspergillus fumigatus CF1003, 1×10^5 cells/ml, 3 days, 27° C.
Description: The in vitro antifungal activities of representative compounds of the present invention were measured by determining the minimal inhibitory concentration (MIC), which is the concentration of an antifungal at which no fungal growth can be observed. […] Antifungal activities were determined by either method A or B (see below) using microtest plates according NCCLS with minor modifications (Galgiani et at., Antimicrob. Agents Chemother. 33, 731 (1989)). […]
Structures can show the parent of a compound that is named as a salt.
PROPERTY MEASURED: MIC

Study these solved cases before continuing.
| COMPOUND | MIC |
| --- | --- |
| CCCCCCC/C=C/[C@@H]1OC[C@@H](OCc2ccccc2)[C@H](OC)[C@@H]1OC(=O)CN.O=C(O)C(F)(F)F [Example 31] | 100 µg/mL |
| CCCCCCC/C=C/[C@@H]1OC[C@H](C)[C@H](OC)[C@H]1OC(=O)CN [Example 4, trifluoroacetic acid salt] | 3.13 µg/mL |
| CCCCCCC/C=C\[C@@H]1OC[C@@H](C)[C@H](OC)[C@H]1OC(=O)CN.O=C(O)C(F)(F)F [Example 42] | 100 µg/mL |

Here is the next item to consider.
Using the record for CCCCCCC/C=C/[C@@H]1OC[C@H](C)C[C@H]1OC(=O)CN.O=C(O)C(F)(F)F [Example 28] , state its measured MIC.
50 µg/mL

###

Test system: Aspergillus fumigatus
Test: In vitro antifungal activity, MIC (Method A)
Assay type: cell-based
Conditions: Aspergillus fumigatus, 72 h, pH 7, Aspergillus fumigatus CF1004, 1×10^5 cells/ml, 3 days, 27° C.
Protocol: The in vitro antifungal activities of representative compounds of the present invention were measured by determining the minimal inhibitory concentration (MIC), which is the concentration of an antifungal at which no fungal growth can be observed. […] Antifungal activities were determined by either method A or B (see below) using microtest plates according NCCLS with minor modifications (Galgiani et at., Antimicrob. Agents Chemother. 33, 731 (1989)). […]
PROPERTY MEASURED: MIC (µg/mL)
Quick note: give the figure in µg/mL, leave out the unit.

Consider the worked cases shown below.
| MOLECULE | UNITS OF MEASURE | MIC |
| --- | --- | --- |
| CCCCCCCCC[C@@H]1OC[C@H](C)C=C1Cn1ccnc1 [Example 59] | µg/mL | 12.5 |
| CCCCCCC/C=C\[C@@H]1OC[C@H](C)[C@H](OCC)[C@@H]1OC(=O)CN.O=C(O)C(F)(F)F [Example 27] | µg/mL | 100 |

Identify measured MIC corresponding to CCC/C=C/C=C/C=C\[C@@H]1OC[C@H](C)[C@H](OC)[C@H]1OC(=O)CN.O=CO [Example 12]
12.5

Give MIC for the following molecule: CCCCCCC/C=C/[C@@H]1OC[C@@H](OCc2ccccc2)[C@H](OC)[C@@H]1OC(=O)CN.O=C(O)C(F)(F)F [Example 31]
200

Give a short answer stating reported MIC for CCCCCCC/C=C/[C@@H]1OC[C@H](C)C2(OCCO2)[C@H]1OC(=O)CN.O=C(O)C(F)(F)F [Example 46] .
25

Provide one value: measured MIC of CCCCCCC/C=C\[C@@H]1OC[C@@H](C)[C@H](OC)[C@H]1OC(=O)CN.O=C(O)C(F)(F)F [Example 42]
100

Tell us which MIC value is on record for CCCCCCCCC[C@@H]1OC[C@H](C)[C@H](OC)[C@@H]1OC(=O)CN.O=CO [Example 5]
100

###

Recorded MIC by entry
test system: Aspergillus fumigatus; assay: In vitro antifungal activity, MIC (Method A); assay type: cell-based; conditions: Aspergillus fumigatus, 72 h, pH 7, Aspergillus fumigatus CF1003, 1×10^5 cells/ml, 3 days, 27° C.
Structures can show the parent of a compound that is named as a salt.
Write your answer as a measured quantity: the number, then the unit.

In one line, give reported MIC of the entry `CCCCCCCCC[C@@H]1OC[C@@H](C)[C@H](OC)[C@@H]1OC(=O)CN.O=C(O)C(F)(F)F` .
50 µg/mL

Entry `CCCCCCC/C=C\[C@@H]1OC[C@H](C)[C@H](OCC)[C@@H]1OC(=O)CN.O=C(O)C(F)(F)F` needs its MIC filled in; supply it.
50 µg/mL

In one line, give reported MIC of the entry CCCCCCC/C=C\[C@@H]1OC[C@H](C)[C@H](OC)[C@H]1OC(=O)CN [Example 1, acetic acid salt] .
100 µg/mL

###

test system: Cryptococcus neoformans; test: In vitro antifungal activity, MIC (Method A); type: cell-based; conditions: Cryptococcus neoformans, 72 h, pH 7, Cryptococcus neoformans CY1057, 1×10^5 cells/ml, 3 days, 27° C.
A collection of compounds and their measured log10 MIC
Parameter value (number): base-10 log of MIC in µg/mL.

Here is how some compounds turned out for log10 MIC.
| COMPOUND | PROPERTY MEASURED | VALUE REPORTED |
| --- | --- | --- |
| CO[C@@H]1[C@H](OC(=O)CN)[C@H](CCCC(C)CCCC(C)C)OC[C@@H]1C.O=C(O)C(F)(F)F (stereo partly drawn) [Example 8] | log10 MIC | 1.10 |
| CCC/C=C/C=C/C=C\[C@@H]1OC[C@H](C)[C@H](OC)[C@H]1OC(=O)CN.O=CO [Example 12] | log10 MIC | 0.19 |
| CCCCCCCC/C=C/[C@@H]1OC[C@H](C)[C@H](OC)[C@H]1OC(=O)CN.O=C(O)C(F)(F)F [Example 6] | log10 MIC | 1.10 |
| CCCCCCCCC[C@@H]1OC[C@H](C)C=C1Cn1ccnc1 [Example 59] | log10 MIC | 0.50 |
| CCCCCCCCO[C@@H]1CCC(C)(C)C[C@H]1CC(O)CN (relative stereo) [Example 84] | log10 MIC | 0.50 |

Could you please provide reported log10 MIC for CCCCCCCCC[C@@H]1OC[C@@H](C)[C@H](OC)[C@@H]1OC(=O)CN.O=C(O)C(F)(F)F [Example 43] ? Thanks!
0.80

Retrieve log10 MIC measured for CCCCCCC/C=C\[C@@H]1OC[C@H](C)[C@H](OCC)[C@@H]1OC(=O)CN.O=C(O)C(F)(F)F [Example 27] and print it.
0.80

Please give measured log10 MIC of the following entry: CCCCCCC/C=C/[C@@H]1OC[C@H](C)C2(OCCO2)[C@H]1OC(=O)CN.O=C(O)C(F)(F)F [Example 46]
1.40

Quote log10 MIC reported for CCCCCCC/C=C/[C@@H]1OC[C@@H](OCc2ccccc2)[C@H](OC)[C@@H]1OC(=O)CN.O=C(O)C(F)(F)F [Example 31] please.
0.80

Give the value of log10 MIC reported for the following: CCCCCCC/C=C\[C@@H]1OC[C@@H](C)[C@H](OC)[C@H]1OC(=O)CN.O=C(O)C(F)(F)F [Example 42]
0.50

Fill in reported log10 MIC for this entry: CCCCCCCCO[C@@H]1CCC(C)(C)[C@H](OC)[C@@H]1Cn1ccnc1 [Example 68]
-0.41

###

tested on: A. fumigatus; test: In vitro antifungal activity, IC80 (Method B); format: cell-based; conditions: Aspergillus fumigatus, A. fumigatus CF1003; 1×10^4 cells/ml, 1-2 days, 27° C., 0.2% agar; read-out: Antifungal activity IC80
PROPERTY MEASURED: IC80 (µg/mL)
Reply numerically in µg/mL, unit not repeated.

| LINE NOTATION | UNITS OF MEASURE | VALUE REPORTED |
| --- | --- | --- |
| CO[C@@H]1[C@@H](Cn2cncn2)[C@H](CCc2ccc(F)cc2F)CCC1(C)C | µg/mL | 93 |

// switching to the query compound
Specify reported IC80 for the compound shown: `CO[C@@H]1[C@@H](Cn2cncn2)[C@H](CCc2ccc3ccccc3n2)CCC1(C)C`
30

###

system: C. neoformans; test: In vitro antifungal activity, IC80 (Method B); type: cell-based; conditions: Cryptococcus neoformans, pH 7, C. neoformans CY1059, 1×10^4 cells/ml, 1-2 days, 27° C., read-out: Antifungal activity IC80
Counter-ions that a name gives are not always drawn.
// IC80 lookup, one value per entry
Please give a number only; it is taken to be in µg/mL.

| COMPOUND | SYSTEM UNDER TEST | IC80 (µg/mL) |
| --- | --- | --- |
| CCCCCCCCO[C@@H]1CCC(C)(C)[C@H](OC)[C@H]1NC(=O)CN [Example 54, trifluoroacetic acid salt] | C. neoformans | 47 |
| CO[C@@H]1[C@@H](Cn2cncn2)[C@H](CSc2ccc(Cl)cc2)CCC1(C)C [Example 73] | C. neoformans | 6.1 |

Switching to the query record.
Consider the compound CO[C@@H]1[C@@H](Cn2cncn2)[C@H](CCc2ccc(N(C)C)cc2)CCC1(C)C [Example 71] . State its measured IC80.
1.9
